Taken from the domain aggregation screens of Martell et al. (2025).

# ASSAY_PROTOCOL: soluble fraction after stress (log2 fold change); higher = more stays soluble; pooled small domains, quantitative proteomics
# TEST_SETTINGS: stress: pH 4
What soluble fraction (log2) was measured for each of the following?
Numbers only.

Example cases with answers are listed next.
1. HMNLYERFPIHELWKETFNETLDEEEHITFITSEFKPENIVLGQGFIAAPSKKDAVDWLKVIRTVLIFYDS -1.61
2. HMLPGLGPIERAQFMLQAIPGISPTRSAALIDKFGSIAGIAQASIKDIQTIEGIGKKTATTLYEVLNAG -0.223
3. HMTIGLLISKARTNSGLTQAELATRAGTSQAAIARYESDRVSPSVSTLERVLRAAGEELVISSS -0.0184
4. HMSDDIPVHYRLDVNDAARALKLLTDNGFSAETAESGLNVYMTRLQSAEAARLLVENNIAVYGLTAV -0.196
5. HMFNISEKLKKYRNALGLTQTEVAEKIEITKPTYASYEKGKDISIGTLKKLADLFEVSFESFFSE -0.336

Please examine the following record next.
## Task What does the data say about its soluble fraction (log2)? Entry: HMLDPYNVLGVPRDAGMDEIKKAYRKLSRTYHPDANIDNPNKAQAEEKFKQIQEAYQQIVKERTE
## Result -0.152

###

# ASSAY_PROTOCOL: soluble fraction after stress (log2 fold change); higher = more stays soluble; pooled small domains, quantitative proteomics
# TEST_SETTINGS: stress: pH 4
Threshold rule: soluble fraction (log2) greater than or equal to -0.3 is Y; below that, N.

Completed entries (count: 5):
1. HMDSTLDLVATQGGRLDQVLAEMIPEHSRNRLQHWIKAGRVLVDGQPVLEPKHKIYGGEDLAVRVD Y
2. HMNATLEQLTQREREIAVLMAEGLTNAQIGSRLNVSMASVKAHLSHIFTKLGVDNRVSAAMMVL Y
3. HMSGKGEFDQLLRSGEYVQAFQRANANGNVTLRRQQLLNLARHQAASGVGSGAIESLSTIQRI Y
4. HMEITGKYKAKEDIKLKVIPLISSLDLQDIKQNTELEVKDTMNNWAYVTVQEKQGWVVLEKIEKVE N
5. HMKVEFTPAYLKKFKANKNAWKFYEAQTNTYKKQSAWYVISAKQEETRLRRLDLLIYDSENGIHIKPLRR Y

Next item in the queue.
## Task Does soluble fraction (log2) meet or surpass -0.3 for HMNSPSKVIDISQLRKGMFVQLDLGWMSHPFAVGSFKVSTDEQIQTLRGLGLSEVRYIPEKSDPA ?
## Result N

###

What soluble fraction (log2) was measured for each of the following?
# ASSAY_PROTOCOL: soluble fraction after stress (log2 fold change); higher = more stays soluble; pooled small domains, quantitative proteomics
# TEST_SETTINGS: stress: pH 4
Numbers only.

Example cases with answers are listed next.
1. HMSNEKVVKFAQELLVDEERSAISPALISAKIDQVLMFKPAWNEGLDRDAVVNELVRRFSIW -1.19
2. HMFESQYIGKIATAITDISAFSGRLKIYDENWEARTLGEDAPEIKKGAKVKIVRHDDLTMFVEKK 0.087
3. HMQEKLELIIPVSSIGKRADVAIQDLLSSYSRAKIQEWIKSGFILLESKKISPKDIFMGGERVFIDIQQDE -1.38

Please examine the following record next.
## Task What does the data say about its soluble fraction (log2)? Entry: HMNQSKYQTIADELKSKILSGEYPENTTIPPELQLQKDYQVSRHTIRQAIALLANEGFLRKEKGSGTYVDV
## Result 0.254
